Measured values drawn from patent US20250171438A1 for this set.

Biological target: human PAH with the R408W mutation (Homo sapiens, UniProt P00439, R408W)
Construct: expressed in transfected cells
Experiment: Cell Based Phenylalanine Flux Assay
Conditions: A375 cells expressing human R408W PAH; 24 hrs with compound; 13C-Tyrosine by LC-MS; average where tested multiple times; read-out: AC50
Exercise: for every item that follows, state its recorded AC50.

COMPOUND	AC50
Cn1ncc(C(=O)N2CCc3[nH]cnc3C2c2nc3c(F)cccc3s2)c1N (stereo not drawn)	> 5 µM
N#Cc1ccn2ncc(C(=O)N3CCc4[nH]cnc4[C@H]3c3nc4ccccc4[nH]3)c2c1	> 5 µM
Fc1ccc2sc(CN3CCc4[nH]cnc4C3c3nc4cc(F)ccc4s3)nc2c1 (stereo not drawn)	> 5 µM
Cc1csc(CCC(=O)N2CCc3[nH]cnc3[C@H]2c2nc3ccccc3[nH]2)n1	1 to 5 µM
O=C(c1cnn2ccccc12)N1CCc2[nH]cnc2C1c1nc2ccc(Br)cc2s1 (stereo not drawn)	> 5 µM

Answer for every listed entry: what is its AC50? The entries follow.
1. O=C(c1ncn2ccccc12)N1CCc2[nH]cnc2[C@@H]1c1nc2ccc(F)cc2s1 (single isomer, unassigned)
2. O=C(c1cnn2cc(Br)ccc12)N1CCc2[nH]cnc2C1c1nc2ccc(Br)cc2[nH]1 (stereo not drawn)
3. Cc1noc(C(=O)N2CCc3[nH]cnc3[C@@H]2c2nc3ccccc3s2)n1 (single isomer, unassigned)
4. O=C(c1nncs1)N1CCc2[nH]cnc2C1c1nc2ccc(F)cc2s1 (stereo not drawn)
5. O=C(C1CC1)N1CCc2[nH]cnc2C1c1nc2c(F)cccc2s1 (stereo not drawn)

Output line:
> 5 µM
> 5 µM
> 5 µM
1 to 5 µM
1 to 5 µM

* * *

Target: human PAH with the R408W mutation (Homo sapiens, UniProt P00439, R408W)
Construct: expressed in transfected cells
Sequence (P00439 1-452 R408W): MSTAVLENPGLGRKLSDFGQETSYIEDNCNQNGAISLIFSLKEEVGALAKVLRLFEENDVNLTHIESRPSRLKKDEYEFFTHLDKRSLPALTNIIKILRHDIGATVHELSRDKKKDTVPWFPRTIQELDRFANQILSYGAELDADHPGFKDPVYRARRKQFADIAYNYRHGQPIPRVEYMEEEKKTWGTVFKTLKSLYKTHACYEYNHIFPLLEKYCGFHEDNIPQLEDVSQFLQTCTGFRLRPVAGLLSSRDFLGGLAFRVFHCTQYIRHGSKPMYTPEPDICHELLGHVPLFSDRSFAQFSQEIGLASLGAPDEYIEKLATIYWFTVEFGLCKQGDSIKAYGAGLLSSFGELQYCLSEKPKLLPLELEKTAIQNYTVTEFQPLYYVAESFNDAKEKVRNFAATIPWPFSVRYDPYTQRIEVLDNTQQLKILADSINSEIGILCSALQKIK
Assay: Cell Based Phenylalanine Flux Assay
Details: A375 cells expressing human R408W PAH; 24 hrs compound incubation; 13C-Tyrosine by LC-MS; average where tested multiple times; read-out: AC50
Exercise: for every item that follows, state its recorded AC50.

COMPOUND	TEST SYSTEM	AC50
CC[C@H](O)c1nc(C(F)F)c(C(=O)N2CCc3[nH]cnc3[C@H]2c2nc3c(F)cccc3s2)o1 [Example 2063]	human PAH with the R408W mutation (Homo sapiens, UniProt P00439, R408W)	< 0.5 µM
Cn1cc(C(F)(F)C(=O)N2CCc3[nH]cnc3[C@@H]2c2nc3ccccc3s2)cn1 [Example 1556]	human PAH with the R408W mutation (Homo sapiens, UniProt P00439, R408W)	1 to 5 µM
CC(C)(C)c1ncc(C(=O)N2CCc3[nH]cnc3[C@H]2c2nc3ccccc3s2)s1 [Example 1421]	human PAH with the R408W mutation (Homo sapiens, UniProt P00439, R408W)	< 0.5 µM
O=C(c1nnc(-c2cc[nH]n2)o1)N1CCc2[nH]cnc2[C@@H]1c1nc2c(F)cccc2s1 [Example 1885]	human PAH with the R408W mutation (Homo sapiens, UniProt P00439, R408W)	1 to 5 µM
Clc1cnc(CN2CCc3[nH]cnc3[C@@H]2c2nc3ccccc3[nH]2)s1 [Example 979]	human PAH with the R408W mutation (Homo sapiens, UniProt P00439, R408W)	> 5 µM

Answer for every listed entry: what is its AC50? The entries follow.
1. Cn1ncnc1C(=O)N1CCc2[nH]cnc2[C@@H]1c1nc2c(C(F)(F)F)cccc2s1 [Example 2102]
2. O=C(c1ocnc1CF)N1CCc2[nH]cnc2[C@H]1c1nc2c(F)cccc2s1 [Example 2041]

Output line:
["1 to 5 µM", "< 0.5 µM"]

Answer for every listed entry: what is its AC50? The entries follow.
1. Cn1cc(-c2ccc3c(C(=O)N4CCc5[nH]cnc5[C@@H]4c4nc5ccccc5s4)cnn3c2)cn1 [Example 1214]
2. O=C(c1nnc(-c2c(F)cccc2F)o1)N1CCc2[nH]cnc2[C@@H]1c1nc2ccccc2s1 [Example 1368]
3. Cc1nc(Br)c(C(=O)N2CCc3[nH]cnc3[C@@H]2c2nc3c(F)cccc3s2)o1 [Example 1759]
4. O=C(c1cn(CC(F)(F)F)nc1C(F)F)N1CCc2[nH]cnc2[C@H]1c1nc2c(F)cccc2s1 [Example 1987]
5. O=C(c1oc(CN2CCOCC2)nc1C(F)(F)F)N1CCc2[nH]cnc2[C@@H]1c1nc2ccccc2s1 [Example 1628]

Output line:
["1 to 5 µM", "< 0.5 µM", "1 to 5 µM", "< 0.5 µM", "< 0.5 µM"]

Answer for every listed entry: what is its AC50? The entries follow.
1. Cc1c(-c2nnc(C(=O)N3CCc4[nH]cnc4[C@@H]3c3nc4ccccc4s3)o2)cnn1C [Example 1846]
2. Cc1ccc2nc([C@H]3c4nc[nH]c4CCN3C(=O)c3cncs3)sc2c1 [Example 1304]
3. O=C(c1ccnn1-c1ccccc1)N1CCc2[nH]cnc2[C@H]1c1nc2c(F)cccc2s1 [Example 1605]
4. O=C(c1nc2ccccc2o1)N1CCc2[nH]cnc2[C@H]1c1nc2ccccc2s1 [Example 1129]
5. Cc1ccc2c(C(=O)N3CCc4[nH]cnc4[C@H]3c3nc4c(F)cccc4s3)cnn2c1 [Example 1173]

Output line:
1: 1 to 5 µM; 2: > 5 µM; 3: 0.5 to 1 µM; 4: < 0.5 µM; 5: 0.5 to 1 µM

Answer for every listed entry: what is its AC50? The entries follow.
1. O=C(c1ocnc1C(F)F)N1CCc2[nH]cnc2[C@H]1c1nc2c(F)cccc2s1 [Example 1615]
2. N#Cc1nc(N2CCOCC2)oc1C(=O)N1CCc2[nH]cnc2[C@H]1c1nc2ccccc2s1 [Example 1705]
3. CC(C)(F)c1ccc2c(C(=O)N3CCc4[nH]cnc4[C@H]3c3nc4c(F)cccc4s3)cnn2c1 [Example 1489]
4. O=C(c1cn(CC(F)(F)F)nc1Cl)N1CCc2[nH]cnc2[C@@H]1c1nc2c(F)cccc2s1 [Example 1763]
5. O=C(c1oc(N2CCOCC2)nc1Br)N1CCc2[nH]cnc2[C@H]1c1nc2c(F)cccc2s1 [Example 2033]
6. O=C(c1cnn2ccc(Cl)cc12)N1CCc2[nH]cnc2[C@H]1c1nc2ccc(Br)cc2[nH]1 [Example 965]

Output line:
1: < 0.5 µM; 2: 0.5 to 1 µM; 3: 0.5 to 1 µM; 4: 1 to 5 µM; 5: < 0.5 µM; 6: 1 to 5 µM

Answer for every listed entry: what is its AC50? The entries follow.
1. CC(C)n1ncnc1C(=O)N1CCc2[nH]cnc2[C@H]1c1nc2c(F)cccc2s1 [Example 2039]
2. CC(C)(O)c1nc(C(F)(F)F)c(C(=O)N2CCc3[nH]cnc3[C@@H]2c2nc3ccccc3s2)o1 [Example 1554]

Output line:
["< 0.5 µM", "< 0.5 µM"]
